# TEST_METHOD_NOTES: Human HepG2 cell viability assay in 384 well format
# Type: toxicity, cell-based
# Parameters: dose 125 nL, time 70.5 hour; concentration not given beside the values
# EXPERIMENTAL_CONDITIONS: HepG2 cells, read-out: Inhibition
cytotoxicity at 70.5 h values, listed per item
Give the number; % is assumed, so skip it.

Before answering, review these 5 worked examples.
COMPOUND | READING_UNIT | cytotoxicity at 70.5 h
Cc1ccc(CNC(=O)N(C)Cc2ccc([S+](C)[O-])cc2)s1 (centres undefined) | % | -6.72
Cc1ccc(CN(C(=O)C(C)NC(N)=O)C2CC2)cc1C (centres undefined) | % | 25.3
COc1ccc2[nH]nc(CN3CCC(C(C)N4CCCC4)CC3)c2c1 (centres undefined) | % | -1.99
CC(CN1CCCC1=O)NC(=O)NCc1ccccc1-n1cccn1 (centres undefined) | % | -11.4
c1ccc2c3c([nH]c2c1)C(c1nn[nH]n1)CCC3 (centres undefined) | % | -10.7

Please give measured cytotoxicity at 70.5 h of the following entry: Cc1ccccc1-c1noc(CN2CCOC(Cn3cccn3)C2)n1 (centres undefined) -10.3

Give the reported value of cytotoxicity at 70.5 h for this record: CC(C(=O)NCCc1ccc2c(c1)OCCO2)n1cncn1 (centres undefined) -14.6

Read the entry `CC(=O)NCc1cc2n(n1)CCN(Cc1ccccc1OC(F)(F)F)C2` and write its reported cytotoxicity at 70.5 h. -3.35

Using known records, supply cytotoxicity at 70.5 h for O=C(NCC(O)c1cccs1)c1ccco1 (centres undefined) -10.6

For CC(=O)Nc1nc(CN2CCCC2c2cnn(C)c2)cs1 (centres undefined) , write its cytotoxicity at 70.5 h. 31.4

Determine its reported cytotoxicity at 70.5 h: `CC(=O)N1CCN(C(=O)CN2CCc3c(ncn3C3CC3)C2)CC1` 6.66

Find the measured cytotoxicity at 70.5 h of CC(NC(=O)NCc1cccs1)c1ccc2c(c1)CCC(=O)N2 (centres undefined) and report it. -4.6

Given the compound `CCOC(=O)[C@H]1[C@@H](O)C(=O)N(C)C12CCN(C(=O)CC(C)(C)C)CC2` , write its reported cytotoxicity at 70.5 h. -6.45

Entry CC(=O)c1cccc(S(=O)(=O)NCC(C)(O)c2cccs2)c1 (centres undefined) needs its cytotoxicity at 70.5 h filled in; supply it. -7.85

Please give measured cytotoxicity at 70.5 h of the following entry: `O=C(CCSc1ccccc1)NCC1CCN(Cc2ccsc2)CC1` 4.4

Supply cytotoxicity at 70.5 h value. Item: `O=C(N[C@@H]1CN(c2ncccn2)[C@@H]2CCCO[C@@H]21)c1cscn1` 20.2

Read the entry CC(C(=O)Nc1cnn(CC(N)=O)c1)c1ccc(Cl)s1 (centres undefined) and write its reported cytotoxicity at 70.5 h. -4.91

Provide cytotoxicity at 70.5 h value for the following compound: CCCC(C(=O)NC1CCN(S(C)(=O)=O)CC1)c1ccccc1 (centres undefined) -4.97

In one line, give reported cytotoxicity at 70.5 h of the entry `Nc1cc2c(nn1)CCN(C(=O)CCc1ccc3c(c1)OCO3)C2` . -6.15

FYI, the data here is from ChEMBL document CHEMBL3507680.
